# experiment: Inhibition of KDR (unknown origin) expressed in […] cells assessed as reduction in cell viability incubated for 48 hrs by celltiter glo luminescence cell viability assay
attribute.measured: IC50 (µM)

CN(C)CCCNc1ccn2ncc(-c3ccc4c(c3)OCO4)c2n1	9
